Recorded below: Ki, system Melanocortin receptor 3 (Homo sapiens, UniProt P41968).
Kindly answer with a numeric value in µM, unit omitted.

Consider the following illustrative entries.
INSERT INTO assay_data (smilesrecord, observedresult) VALUES
  ('NCCCNC(=O)[C@H](CNCc1c[nH]c2ccccc12)NCc1ccc2ccccc2c1', 50.1),
  ('NC(N)=NCCC[C@H](N)C(=O)N(Cc1ccc2ccccc2c1)Cc1cccc2ccccc12', 7.94),
  ('N=C(N)NCCCNC(=O)[C@H](CCCN=C(N)N)NCc1ccc2ccccc2c1', 5.01);

# context switch: different compound, same Ki
Problem: Look up Ki with Melanocortin receptor 3 (Homo sapiens, UniProt P41968) for this compound: NCCCCCC(=O)N(Cc1ccc2ccccc2c1)Cc1cccc2ccccc12
Sequence (P41968 whole entry): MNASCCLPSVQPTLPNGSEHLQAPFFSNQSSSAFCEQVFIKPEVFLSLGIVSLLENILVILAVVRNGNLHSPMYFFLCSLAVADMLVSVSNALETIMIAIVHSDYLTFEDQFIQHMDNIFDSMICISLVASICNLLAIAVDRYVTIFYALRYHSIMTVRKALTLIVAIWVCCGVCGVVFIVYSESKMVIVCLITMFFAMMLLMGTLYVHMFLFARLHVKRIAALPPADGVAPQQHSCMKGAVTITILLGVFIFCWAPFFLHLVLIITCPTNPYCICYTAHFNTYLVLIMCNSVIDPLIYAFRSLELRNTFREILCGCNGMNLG
Solution: 31.6
